assay-info: Plasma Oxt
Type: in vivo, mice
experimental-parameters: male, C57BL/6J, mouse, plasma, ip, 12 μg

entry-smiles: CC[C@H](C)[C@@H]1NC(=O)[C@H](Cc2ccc(O)cc2)NC(=O)[C@@H](N)CSSC[C@@H](C(=O)N2CCC[C@H]2C(=O)N[C@@H](CC(C)C)C(=O)NCC(N)=O)NC(=O)[C@H](CC(N)=O)NC(=O)[C@H](CCC(N)=O)NC1=O
half-life / min: 32

====

assay-info: Plasma Oxt
Type: in vivo, mice
experimental-parameters: male, C57BL/6J (wildtype), mouse, plasma, inhaled or intranasal, 12 ug

entry-smiles: CC[C@H](C)[C@@H]1NC(=O)[C@H](Cc2ccc(O)cc2)NC(=O)[C@@H](N)CSSC[C@@H](C(=O)N2CCC[C@H]2C(=O)N[C@@H](CC(C)C)C(=O)NCC(N)=O)NC(=O)[C@H](CC(N)=O)NC(=O)[C@H](CCC(N)=O)NC1=O
half-life [min]: 25.8
